Origin of the recorded values: patent US20250034200A1

Known half-life of a selection of compounds
- protocol: Aqueous stability assay (HPLC, pseudo first-order half-life)
- Format: physicochemical
- reported_conditions: buffer; DPBS pH 7.0-7.3, 1 mg/mL, room temperature; d (days); read-out: PBS t1/2 (converted)
- Method: Aqueous stability experiments were performed on an Agilent 1100 HPLC equipped with an Agilent 1200 autosampler. […] […] Immediately after sample preparation, injection by the HPLC autosampler was performed, which was recorded as the initial time point (t=0 min). […] Next, the area of the parent peak in each chromatogram was determined by automated integration in the Agilent ChemStation software. […] Finally, the aqueous stability was evaluated using the following equation: […]
experimental_endpoint: half-life (days)

>>> print(df.to_string())
                                   compound  experimental_endpoint  relation_symbol  numeric_readout
0  CNC[C@@H]1CCCN1C(=O)O/N=C(\C)[C@H]1CCC2[C@@H]3CCC4=CC(=O)CC[C@]4(C)[C@H]3CC[C@@]21C.Cl (some centres unmarked) [32k]              half-life                >               30
1  C/C(=N\OC(=O)N(C)C[C@@H]1CCCCN1)[C@H]1CCC2[C@@H]3CCC4=CC(=O)CC[C@]4(C)[C@H]3CC[C@@]21C.Cl (some centres unmarked) [32l]              half-life                =             19.8
2  CNCCCN(C)C(=O)O/N=C(\C)[C@H]1CC[C@H]2[C@@H]3CCC4=CC(=O)CC[C@]4(C)[C@H]3CC[C@]12C.Cl              half-life                >               30
3  CNCC(C)(C)CN(C)C(=O)O/N=C(\C)[C@H]1CCC2[C@@H]3CCC4=CC(=O)CC[C@]4(C)[C@H]3CC[C@@]21C.Cl (some centres unmarked)              half-life                =             22.8
4  C/C(=N\OC(=O)NCCN(C)C)[C@H]1CC[C@H]2[C@@H]3CCC4=CC(=O)CC[C@]4(C)[C@H]3CC[C@]12C.Cl              half-life                =             32.8
